System: THP-1 cells
Assay: LPS-induced cytokine production assay, TNFα
Type: cell-based
Settings: Homo sapiens, 300 ng/mL LPS, 5 hours, read-out: TNF (5 h)
measurementKind: IC50

GET /value?item= CN(C)[C@H]1CC[C@H](Nc2ncnc3sc4ccc(C(N)=O)cc4c23)CC1 &field=IC50 returns ≥ 1 µM

GET /value?item= CN(CC(=O)N1CCCC1)[C@H]1CC[C@H](Nc2ncnc3sc4ccccc4c23)CC1 &field=IC50 returns ≥ 1 µM

GET /value?item= NC(=O)c1ccc2sc3ncnc(N[C@H]4CC[C@H](N5CCOCC5)CC4)c3c2c1 &field=IC50 returns ≤ 1 µM

GET /value?item= c1ccc2c(c1)sc1ncnc(N[C@H]3CC[C@H](N4CCOCC4)CC3)c12 &field=IC50 returns ≤ 1 µM

GET /value?item= CN(C)[C@H]1CC[C@H](Nc2ncnc3sc4ccc(CO)cc4c23)CC1 &field=IC50 returns ≥ 1 µM

GET /value?item= CN(C)[C@H]1CC[C@H](Nc2ncnc3sc4ccccc4c23)CC1 &field=IC50 returns ≤ 1 µM

GET /value?item= CCOC(=O)c1ccc2sc3ncnc(N[C@H]4CC[C@H](N(C)C)CC4)c3c2c1 &field=IC50 returns ≤ 1 µM

Data provenance: patent US9481687B2
